All values here come from patent US20220242950A1.

Reported IC50 of IL-33 signaling (HEK-Blue assay) is given for each of the following binders.
Molecular target: T1, human IL1RAP on the cell surface (human, UniProt Q9NPH3 21-570)
T1 sequence (looked up): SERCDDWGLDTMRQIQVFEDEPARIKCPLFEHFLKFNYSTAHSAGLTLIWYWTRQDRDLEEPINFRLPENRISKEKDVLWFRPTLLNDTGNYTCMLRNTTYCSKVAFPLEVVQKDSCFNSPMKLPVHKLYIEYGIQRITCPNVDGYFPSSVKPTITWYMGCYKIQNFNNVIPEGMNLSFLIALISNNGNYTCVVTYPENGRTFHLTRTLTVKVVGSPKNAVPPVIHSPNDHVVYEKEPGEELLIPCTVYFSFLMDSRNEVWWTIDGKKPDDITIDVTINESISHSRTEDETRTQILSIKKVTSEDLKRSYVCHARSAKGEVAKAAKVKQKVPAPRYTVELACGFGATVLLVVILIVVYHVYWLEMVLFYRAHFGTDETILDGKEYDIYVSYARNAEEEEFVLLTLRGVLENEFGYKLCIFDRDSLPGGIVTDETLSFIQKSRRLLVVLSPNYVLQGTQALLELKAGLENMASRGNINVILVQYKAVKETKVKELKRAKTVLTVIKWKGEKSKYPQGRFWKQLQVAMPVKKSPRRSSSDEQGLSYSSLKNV
Assay: cell-based or functional assay
The figure you give is taken to be in nM; do not add the unit.

INSERT INTO measurements (binder, assay_metric, test_result) VALUES
  ('h48D2 VH4:VL3 (antibody, human IgG1, kappa, L234A L235A, V domains shown, Humanized; also called VL3:VH4) VH: QVQLQESGPGLVKPSETLSLTCTVSGPSLSHFDITWIRQPPGKGLEWIGTISPGVSTYYASWAKSRFTISVDTSKNQFSLKLTSVTAADTATYYCARGGVGSSWKAFDLWGPGTLVTVSS VL: DILLTQTPSVVSASVGDRVTITCQASESISTALAWYQQKPGQAPRLLIYKASTLPSGVPSRFRGSGSGTDFTLTITSLQPEDFATYYCQQGFSSGNVHNAFGGGTRLEIKR', 'IC50 of IL-33 signaling (HEK-Blue assay)', 7030),
  ('h48D2 VH4:VL5 (antibody, human IgG1, kappa, L234A L235A, V domains shown, Humanized; also called VL5:VH4) VH: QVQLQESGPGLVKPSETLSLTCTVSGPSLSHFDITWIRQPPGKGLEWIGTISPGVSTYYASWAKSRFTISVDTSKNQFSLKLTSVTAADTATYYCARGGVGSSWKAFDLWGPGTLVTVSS VL: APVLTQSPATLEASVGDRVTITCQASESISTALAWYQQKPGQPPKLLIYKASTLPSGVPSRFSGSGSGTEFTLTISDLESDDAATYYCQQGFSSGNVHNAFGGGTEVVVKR', 'IC50 of IL-33 signaling (HEK-Blue assay)', 74.3);

# context switch: different binder, same IC50 of IL-33 signaling (HEK-Blue assay)
## Task Report IC50 of IL-33 signaling (HEK-Blue assay) for h48D2 VH2:VL3 (antibody, human IgG1, kappa, L234A L235A, V domains shown, Humanized; also called VL3:VH2) VH: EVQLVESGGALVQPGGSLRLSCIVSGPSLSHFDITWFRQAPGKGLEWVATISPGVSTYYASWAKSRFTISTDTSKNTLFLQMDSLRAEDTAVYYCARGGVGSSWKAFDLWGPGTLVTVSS VL: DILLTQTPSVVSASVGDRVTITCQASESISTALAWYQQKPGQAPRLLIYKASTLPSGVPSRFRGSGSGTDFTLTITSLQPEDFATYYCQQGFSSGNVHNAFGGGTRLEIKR please.
## Result 1950
